measurementProtocol: MM1S cell viability effects, profiling panel, calcein-AM fluorescence, 48 h, basal (AID 1165);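 also: viability of MM1S multiple myeloma cells under basal unstimulated conditions; test concentration not given here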
runParameters: higher = more signal
# maps each entry to its z-score
valueKind: z-score

[[record]]
molecule = "O=C1N(Cc2ccccc2)Cc2ccccc2[C@@H]2OC(c3ccc(OCCCO)cc3)=N[C@]12CCS(=O)(=O)c1ccccc1"
valueobserved = -1.25

[[record]]
molecule = "CC(CO)N1C(=O)[C@@H]2[C@H]3C(=O)OCC=C[C@H]3OC23C=CCN(CCN2CCOCC2)C(=O)[C@@H]13 (some centres not stated)"
valueobserved = 0.646

[[record]]
molecule = "CN(C)C(=O)C1N=C(c2ccc(OCCCO)cc2)N(c2ccccc2)O1 (configuration not stated)"
valueobserved = 0.237

[[record]]
molecule = "CCCC[C@@H]1C[C@H]1[C@@H](NC(=O)c1cccs1)c1ccc(C(F)(F)F)cc1"
valueobserved = -0.771

[[record]]
molecule = "CN1C(=O)C2C=CC(C(O)c3cccc4ccccc34)N(N3CCCCC3)C2C1=O (configuration not stated)"
valueobserved = -1.21

[[record]]
molecule = "C=CCOC(=O)[C@H]1[C@@H]2C(=O)O[C@@H](c3ccccc3)[C@@H](c3ccccc3)N2[C@@H](c2ccc(OCCOC(=O)[C@@H]3C[C@@H]4C(=O)N[C@@H](CCCCNC(C)=O)C(=O)N4[C@@H]3c3ccc(O)cc3)cc2)[C@]12C(=O)Nc1ccc(I)cc12"
valueobserved = -1.6

[[record]]
molecule = "O=C1O[C@@H](c2ccccc2)[C@@H](c2ccccc2)N2[C@@H](c3ccc(OCCO)cc3)[C@]3(C(=O)Nc4ccccc43)[C@@H](C(=O)O)[C@H]12"
valueobserved = 0.243

[[record]]
molecule = "COCCOC(=O)N1C(=O)[C@@]2(c3cc(C#CCC(C(=O)OC)C(=O)OC)ccc31)[C@H](C(=O)N1CCc3cc(OC)c(OC)cc3C1)[C@H]1C(=O)O[C@H](c3ccccc3)[C@H](c3ccccc3)N1[C@@H]2c1ccc(OCCO)cc1"
valueobserved = -0.219

[[record]]
molecule = "O=C1O[C@H](c2ccccc2)[C@H](c2ccccc2)N2[C@H]1[C@@H](C(=O)O)[C@]1(C(=O)Nc3ccc(C#CC4=CCCCC4)cc31)[C@H]2c1ccc(O)cc1"
valueobserved = -3.14

[[record]]
molecule = "CCOC(=O)C1=CC[C@@H](c2ccccc2C(F)(F)F)N(S(=O)(=O)c2ccc(C)cc2)[C@H]1c1ccc(C#N)cc1"
valueobserved = -0.509

[[record]]
molecule = "COc1cc(CO)cc(I)c1O[C@H]1C=C(C(=O)NCCO)C[C@@H](NCc2ccc(F)cc2)[C@@H]1O"
valueobserved = -2.35

[[record]]
molecule = "O=C(NCc1ccccc1)[C@@H]1c2ccccc2C(=O)N(Cc2ccccc2C(F)(F)F)[C@H]1c1ccc(CO)cc1"
valueobserved = 0.0209

[[record]]
molecule = "CC(C)OC(=O)C=C1C[C@@H](c2ccc(C(F)(F)F)cc2)O[C@@H](c2ccc(C(F)(F)F)cc2)O1"
valueobserved = -2.49

[[record]]
molecule = "COC(=O)[C@@]1(Cc2ccc(OC)cc2)[C@H]2c3cc(C(=O)N4CCCC4)n(Cc4c(-c5ccccc5)noc4C)c3C[C@H]2CN1C(=O)c1ccccc1"
valueobserved = -2.72

[[record]]
molecule = "COCCOC(=O)N1C(=O)[C@@]2(c3cc(C#Cc4ccc(OC)cc4)ccc31)[C@H](c1ccccc1OCCO)N1[C@H](c3ccccc3)[C@H](c3ccccc3)OC(=O)[C@H]1[C@@H]2C(=O)N1CCCCCCC1"
valueobserved = -0.248

[[record]]
molecule = "COc1ccc(CN(C2=CC[C@@]3(C(N)=O)C(=O)C(Cl)=C(Cl)C(=O)[C@@]3(C#N)C2)S(=O)(=O)c2ccc(Br)cc2)cc1"
valueobserved = -3.34

[[record]]
molecule = "COCCCNC(=O)[C@]1(CCS(=O)(=O)c2ccccc2)N=C(c2ccc(OCCCO)cc2)O[C@@H]1c1ccccc1N=[N+]=[N-]"
valueobserved = -1.41

[[record]]
molecule = "[N-]=[N+]=Nc1ccccc1[C@H]1OC(c2ccc(OCCCO)cc2)=N[C@@]1(Cc1ccccc1)C(=O)N1CCCCC1"
valueobserved = -3.09

[[record]]
molecule = "CCOC(=O)c1ccc(NC(=O)O[C@H]2[C@H](OC(=O)Nc3ccc4c(c3)OCO4)[C@@H](OC(=O)Nc3ccc4c(c3)OCO4)[C@@H](OC)O[C@@H]2CO)cc1"
valueobserved = -1.05

[[record]]
molecule = "COCCCNC(=O)[C@]1(CCS(=O)(=O)c2ccccc2)N=C(c2ccc(OCCCO)cc2)O[C@@H]1c1ccccc1CN=[N+]=[N-]"
valueobserved = 0.114

[[record]]
molecule = "O=C(NCC(F)(F)F)[C@@H]1c2ccccc2C(=O)N(Cc2ccccc2C(F)(F)F)[C@H]1c1ccc(CO)cc1"
valueobserved = 0.0756

[[record]]
molecule = "COC(=O)[C@@]1(Cc2ccccc2N=[N+]=[N-])N=C(c2ccc(OCCCO)cc2)O[C@H]1c1ccccc1N=[N+]=[N-]"
valueobserved = -3.65

[[record]]
molecule = "CCCCCCc1nc(-c2cc(C)c(OC)c(C)c2)c(C)c2c1[Si](C(C)C)(C(C)C)OC2"
valueobserved = -2.84

[[record]]
molecule = "NCCCCCNC(=O)[C@@H]1C[C@@H]2C(=O)NCC(=O)N2[C@@H]1c1cccc(OCCO)c1"
valueobserved = -0.686

[[record]]
molecule = "CO[C@H]1O[C@H](CO)[C@@H](OC(=O)Nc2ccc3c(c2)OCO3)[C@H](OC(=O)c2cc3ccccc3[nH]2)[C@H]1OC(=O)c1cc2ccccc2[nH]1"
valueobserved = -1.98

[[record]]
molecule = "O=C(N1CCCCC1)[C@@]1(CCS(=O)(=O)c2ccccc2)COC(c2ccc(OCCCO)cc2)=N1"
valueobserved = -1.03

[[record]]
molecule = "C[N+](C)(C)CCCCCCNC(=O)[C@H]1C[C@H]2C(=O)N[C@@H](Cc3ccccc3)C(=O)N2[C@H]1c1ccc(O)cc1"
valueobserved = 0.401


====

measurementProtocol: adipocyte viability effects, profiling panel, cell-based, 3T3-L1 adipocytes, calcein-AM fluorescence, 48 h, basal (AID 1163); also: test concentration not given here
runParameters: 3T3-L1 adipocytes viability, higher = more signal
# maps each entry to its z-score
valueKind: z-score

[[record]]
molecule = "CC=CC(O)C1C=CC2C(=O)N(c3ccccc3)C(=O)C2N1Nc1ccccc1F (stereo not drawn)"
valueobserved = -0.161

[[record]]
molecule = "COc1ccc([Si](C)(C)[C@@H]2[C@@H](CC(=O)N3Cc4ccccc4C[C@H]3CO)O[C@]3(C(=O)N(C)c4ccccc43)[C@H]2C)cc1"
valueobserved = 0.0677

[[record]]
molecule = "O=c1n(-c2ccccc2)c(=O)n2n1CC(COc1ccccc1)=C([C@H](O)CCc1ccccc1)[C@@H]2CO"
valueobserved = 0.725

[[record]]
molecule = "COCC1=C2[C@@H](CCc3ccccc3)OB(O)C[C@@H]2[C@@H]2C(=O)C=CC(=O)[C@@H]2C1"
valueobserved = -0.147

[[record]]
molecule = "CN1C(=O)C2C=CC(C(O)c3ccc(F)cc3)N(Nc3ccccc3)C2C1=O (stereo not drawn)"
valueobserved = -1.02

[[record]]
molecule = "N#Cc1ccc(C(O)C2C=CC3C(=O)N(c4ccccc4)C(=O)C3N2Nc2ccccc2)cc1 (stereo not drawn)"
valueobserved = 0.744

[[record]]
molecule = "[N-]=[N+]=Nc1ccccc1[C@H]1OC(c2ccc(OCCCO)cc2)=N[C@@]1(Cc1ccccc1)C(=O)N1CCCCC1"
valueobserved = -0.019

[[record]]
molecule = "O=C(CS)NCCCCCCNC(=O)[C@H]1C[C@H]2C(=O)N[C@@H](Cc3ccccc3)C(=O)N2[C@H]1c1ccc(O)cc1"
valueobserved = 0.0724


====

# maps each entry to its composite z-score
System: wheat germ agglutinin (Triticum aestivum), Alexa647-labelled
measurementProtocol: wheat germ agglutinin binders on compound microarrays, profiling panel, artefact control for SMM control-protein annotation, biochemical, small-molecule microarray, 635/667 nm fluorescence (AID 1140);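 also: score merges 667 nm feature emission with signal to noise over triplicate slides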
runParameters: WGA-A647 binding, 635 nm fluorescence, higher = more signal
valueKind: composite z-score

[[record]]
compound = "C=CC[C@@]1(C(=O)N2CCOCC2)N=C(c2ccc(OCCCO)cc2)O[C@@H]1c1ccccc1CN=[N+]=[N-]"
valuekind = "composite z-score"
valueobserved = 0.786

[[record]]
compound = "CN(C)c1ccc(C(O)C2C=CC3C(=O)N(c4ccccc4)C(=O)C3N2Nc2ccc([N+](=O)[O-])cc2)cc1 (stereo not drawn)"
valuekind = "composite z-score"
valueobserved = 0.623

[[record]]
compound = "COCCOC(=O)N1C(=O)[C@@]2(c3cc(C#Cc4ccc(OC)cc4)ccc31)[C@H](c1ccc(O)cc1)N1[C@H](c3ccccc3)[C@H](c3ccccc3)OC(=O)[C@H]1[C@@H]2C(=O)N1CCCCCCC1"
valuekind = "composite z-score"
valueobserved = 0.484

[[record]]
compound = "C=C(/C(=C/C[C@H](OC(C)=O)c1ccccc1OCCO)c1cc(C(=O)OC)ccc1OC)C(C)C"
valuekind = "composite z-score"
valueobserved = 0.151

[[record]]
compound = "COCCOC(=O)N1C(=O)[C@@]2(c3ccccc31)[C@H](C(=O)N1CCN(c3ncccn3)CC1)[C@H]1C(=O)O[C@H](c3ccccc3)[C@H](c3ccccc3)N1[C@@H]2c1ccc(O)cc1"
valuekind = "composite z-score"
valueobserved = 0.875

[[record]]
compound = "CCCCO[C@H]1C[C@H]2C(I)=C[C@@H]1C(=O)[C@]21CO1"
valuekind = "composite z-score"
valueobserved = -0.164

[[record]]
compound = "O=C(NCC(F)(F)F)[C@@H]1c2ccccc2C(=O)N(Cc2ccccc2C(F)(F)F)[C@H]1c1ccc(CO)cc1"
valuekind = "composite z-score"
valueobserved = -0.885

[[record]]
compound = "C=CCC(OC(C)=O)[C@@H]1[C@@H](N(Cc2ccc(-c3cccc(C(F)(F)F)c3)o2)C(=O)c2ccc(-c3ccccc3)cc2)c2cc(OCCCO)ccc2N1C(=O)c1ccc2ccccc2n1 (stereo partly drawn)"
valuekind = "composite z-score"
valueobserved = -0.0763

[[record]]
compound = "C=C(COC)/C(=C/C[C@H](OC(=O)c1ccncc1)c1ccccc1OCCO)c1cnc2ccccc2c1"
valuekind = "composite z-score"
valueobserved = 1.04

[[record]]
compound = "COCCOC(=O)N1C(=O)[C@@]2(c3cc(C#CC4=CCCCC4)ccc31)[C@H](C(N)=O)[C@H]1C(=O)O[C@H](c3ccccc3)[C@H](c3ccccc3)N1[C@@H]2c1ccccc1OCCO"
valuekind = "composite z-score"
valueobserved = 1.05

[[record]]
compound = "COC(=O)[C@@]1(Cc2ccc(F)cc2)[C@H]2c3cc(C(=O)N4CCCC4)n(CCN4CNCC4=O)c3C[C@H]2CN1C(=O)c1ccccc1"
valuekind = "composite z-score"
valueobserved = 1.01

[[record]]
compound = "COC(=O)[C@@]1(Cc2ccc(OC)cc2)[C@H]2c3cc(C(=O)N(C)C)n(Cc4ccc(Cl)c(C(F)(F)F)c4)c3C[C@H]2CN1C(=O)c1ccccc1"
valuekind = "composite z-score"
valueobserved = 1.22

[[record]]
compound = "O=C1OCC=C[C@H]2OC34C=CCN(Cc5ccccc5)C(=O)[C@H]3N(CCCCCCO)C(=O)[C@@H]4[C@@H]12 (stereo partly drawn)"
valuekind = "composite z-score"
valueobserved = 0.206

